Numbers sourced from patent US20170022281A1.

# experimental system: T1, human PRLR (Biacore antigen) (human, UniProt P16471 25-234, limits assumed)
# T1 construct: The construct injected over captured antibody is not described (a soluble form is likely); also called huPRLR
# T1 sequence: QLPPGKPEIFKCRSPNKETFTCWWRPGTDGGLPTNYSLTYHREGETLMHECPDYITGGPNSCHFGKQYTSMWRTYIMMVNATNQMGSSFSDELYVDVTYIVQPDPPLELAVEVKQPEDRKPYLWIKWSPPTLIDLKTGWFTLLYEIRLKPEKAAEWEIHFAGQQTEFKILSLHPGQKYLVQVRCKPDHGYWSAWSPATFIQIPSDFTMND
# run description: SPR simultaneous binding; PRLR held by surface mAb Ab19
outcome measure: solution mAb binding, % of PRLR binding (%)
Use % as the unit, but write only the number.

## Input Answer with the recorded solution mAb binding, % of PRLR binding of chAb6 (antibody, human IgG1, kappa, V domains shown, chimeric, murine variable and human G1/kappa constant regions) VH: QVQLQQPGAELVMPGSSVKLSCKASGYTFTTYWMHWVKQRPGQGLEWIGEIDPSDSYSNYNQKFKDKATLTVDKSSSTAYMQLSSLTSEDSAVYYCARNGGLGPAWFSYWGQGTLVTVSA VL: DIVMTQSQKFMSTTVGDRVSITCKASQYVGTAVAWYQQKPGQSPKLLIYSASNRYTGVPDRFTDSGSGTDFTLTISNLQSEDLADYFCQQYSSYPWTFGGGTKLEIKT only.
## Output -1
